These measurements were taken from ChEMBL document CHEMBL3217611.

Answer each item with its documented IC50.
- test.system: Dihydrofolate reductase (Homo sapiens, UniProt P00374)
- Sequence (P00374 whole entry): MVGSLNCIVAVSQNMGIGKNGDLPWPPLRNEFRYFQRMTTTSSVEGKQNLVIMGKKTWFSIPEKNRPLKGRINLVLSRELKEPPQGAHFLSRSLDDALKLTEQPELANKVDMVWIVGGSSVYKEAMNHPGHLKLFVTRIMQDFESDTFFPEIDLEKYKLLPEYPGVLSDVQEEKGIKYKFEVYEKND
- protocol.notes: Inhibition of human DHFR assessed as depletion of NADPH after 30 secs shaking by spectrophotometry
Use µM as the unit, but write only the number.

Would you mind telling me what IC50 value was observed for O=c1nc2ccccn2cc1Cc1ccc(F)cc1C(F)(F)F ?
3.1

Would you mind telling me what IC50 value was observed for O=c1nc2ccc(Br)cn2cc1Cc1cccc(Oc2nc(Cl)c(Cl)cc2Cl)c1 ?
2.73

Would you mind telling me what IC50 value was observed for Nc1cccn2cc(Cc3ccccc3)c(=O)nc12 ?
8.72

---

Answer each item with its documented IC50.
- Test system: MCF7
- protocol.notes: Cytotoxicity against human MCF7 cells after 24 hrs by MTT assay
- Type: functional, cell-based
- details: MCF7, 24 h
Use µM as the unit, but write only the number.

Would you mind telling me what IC50 value was observed for O=c1nc2ccccn2cc1Cc1cccc(Oc2ccccc2)c1 ?
243

Would you mind telling me what IC50 value was observed for Nc1cc(Br)cn2cc(Cc3ccc(F)cc3C(F)(F)F)c(=O)nc12 ?
151

Would you mind telling me what IC50 value was observed for O=c1nc2ccccn2cc1Cc1ccc(F)cc1 ?
200

Would you mind telling me what IC50 value was observed for O=c1nc2ccccn2cc1Cc1ccc(F)cc1C(F)(F)F ?
9.87

Would you mind telling me what IC50 value was observed for O=c1nc2ccc(Br)cn2cc1Cc1ccc(Br)cc1 ?
97.2

Would you mind telling me what IC50 value was observed for O=c1nc2ccc(Cl)cn2cc1Cc1ccc(F)cc1 ?
10.4

Would you mind telling me what IC50 value was observed for O=c1nc2ccccn2cc1Cc1ccc(Br)cc1 ?
157

---

- System: MCF7
- protocol.notes: Cytotoxicity against human MCF7 cells after 24 hrs by MTT assay
- Format: functional, cell-based
- details: MCF7, 24 h
endpoint.name: log10(IC50) (log10 of the value in µM)
The common logarithm of IC50 in µM is what is listed.

Would you mind telling me what log10(IC50) value was observed for O=c1nc2ccc(Cl)cn2cc1Cc1ccc(F)cc1C(F)(F)F ?
2.26

Would you mind telling me what log10(IC50) value was observed for O=c1nc2ccc(Br)cn2cc1Cc1cccc(Oc2nc(Cl)c(Cl)cc2Cl)c1 ?
0.99

Would you mind telling me what log10(IC50) value was observed for O=c1nc2ccccn2cc1Cc1ccccc1 ?
1.88

Would you mind telling me what log10(IC50) value was observed for Nc1cccn2cc(Cc3ccc(F)cc3)c(=O)nc12 ?
2.13

Would you mind telling me what log10(IC50) value was observed for O=C1N=C2C=CC=CN2CC1C(O)c1cccs1 (stereo not given) ?
2.22

Would you mind telling me what log10(IC50) value was observed for Nc1cccn2cc(Cc3ccccc3)c(=O)nc12 ?
2.02

Would you mind telling me what log10(IC50) value was observed for O=c1nc2ccc(Cl)cn2cc1Cc1ccc(Oc2nc(Cl)c(Cl)cc2Cl)cc1 ?
1.99

---

- System: MCF7
- protocol.notes: Cytotoxicity against human MCF7 cells after 24 hrs by MTT assay
- Assay type: functional, cell-based
- details: MCF7, 24 h
Answer each item with its documented IC50.

Quick check: IC50 on MCF7, item Nc1cc(Br)cn2cc(Cc3ccccc3)c(=O)nc12 ?
> 1000 µM

Quick check: IC50 on MCF7, item O=c1nc2ccc(Cl)cn2cc1Cc1ccc([N+](=O)[O-])cc1 ?
> 1000 µM

Quick check: IC50 on MCF7, item O=c1nc2ccc(Br)cn2cc1Cc1ccccc1 ?
> 1000 µM
